This collection of values is drawn from patent US20190352288A1.

In this section we review reported pIC50 values for a set of compounds.
tested on: recombinant human MMP-12 catalytic domain (Homo sapiens)
Construct: recombinant human MMP-12 catalytic domain
Sequence (P39900 106-268 limits assumed): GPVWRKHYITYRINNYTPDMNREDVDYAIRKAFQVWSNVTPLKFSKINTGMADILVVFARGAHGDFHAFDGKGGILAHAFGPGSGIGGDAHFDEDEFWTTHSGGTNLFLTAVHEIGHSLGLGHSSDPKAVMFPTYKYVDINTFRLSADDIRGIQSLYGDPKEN
test: MMP-12 inhibitory assay (fluorogenic substrate cleavage)
condition notes: readout at 30 minutes, 37° C., Table 1
pIC50: −log10 of the molar value.

These solved cases illustrate the format of a correct answer.
| compound | tested on | pIC50 |
| --- | --- | --- |
| O=C1NC(=O)C(c2ccncc2Sc2ccc(OCc3ccc(CO)cc3)cc2)N1 (stereo not shown) [PC-14] | recombinant human MMP-12 catalytic domain (Homo sapiens) | 7.00 to 8.00 |
| Cc1cc(COc2ccc(Sc3ccncc3C3NC(=O)NC3=O)cc2Cl)ccn1 (stereo not shown) [PC-49] | recombinant human MMP-12 catalytic domain (Homo sapiens) | 7.00 to 8.00 |
| Cc1cc(COc2ccc(Sc3ccncc3C3NC(=O)N(C)C3=O)cc2)ccn1 (stereo not shown) [PC-41] | recombinant human MMP-12 catalytic domain (Homo sapiens) | 6.00 to 7.00 |

Dear colleague, I am looking for the recorded pIC50 of the following compound: O=C1NC(=O)C(c2cnccc2Sc2ccc(OCc3cncc(CO)c3)cc2)N1 (stereo not shown) [PC-39]
6.00 to 7.00

What about this compound? Cc1cccc(COc2ccc(Sc3cc[n+](O)cc3C3NC(=O)NC3=O)cc2)c1 (stereo not shown) [OC-3]
7.00 to 8.00

What about this compound? Cc1cccc(COc2ccc(Sc3cnccc3C3NC(=O)NC3=O)cc2)c1 (stereo not shown) [PC-4]
7.00 to 8.00

What about this compound? Cc1cccc(COc2ccc(Sc3ncccc3C3NC(=O)NC3=O)cc2)c1 (stereo not shown) [PC-1]
7.00 to 8.00

What about this compound? Cc1cccc(COc2ccc(S(=O)(=O)c3cc[n+](O)cc3C3NC(=O)NC3=O)cc2)c1 (stereo not shown) [OC-4]
< 6.00

What about this compound? Cc1cccc(COc2ccc([S+]([O-])c3ccccc3C3NC(=O)NC3=O)cc2)c1 (stereo not shown) [OC-2]
6.00 to 7.00

What about this compound? CC(C)[C@H](N)C(=O)OCc1cccc(COc2ccc(Sc3ccncc3C3NC(=O)NC3=O)cc2)c1 (stereo partly shown) [PC-11]
7.00 to 8.00

What about this compound? Cc1cccc(COc2ccc([S+]([O-])c3ccncc3C3NC(=O)NC3=O)cc2)c1 (stereo not shown) [PC-5]
6.00 to 7.00

What about this compound? Cc1cncc(COc2ccc(Sc3ccncc3C3NC(=O)NC3=O)cc2)c1 (stereo not shown) [PC-17]
6.00 to 7.00

What about this compound? NC(=O)c1cc(COc2ccc(Sc3ccncc3C3NC(=O)NC3=O)cc2)ccn1 (stereo not shown) [PC-60]
7.00 to 8.00

What about this compound? Cc1cc(COc2ccc(Oc3ccncc3C3NC(=O)NC3=O)cc2)ccn1 (stereo not shown) [PC-27]
7.00 to 8.00

What about this compound? CC(C)COc1cc(COc2ccc(Sc3ccncc3C3NC(=O)NC3=O)cc2)ccn1 (stereo not shown) [PC-33]
6.00 to 7.00

What about this compound? Cc1cc(COc2ccc(Sc3ccncc3C3NC(=O)NC3=O)cc2)ccn1 (stereo not shown) [PC-16]
> 8.00

What about this compound? CC(C)Oc1cc(COc2ccc(Sc3ccncc3C3NC(=O)NC3=O)cc2)ccn1 (stereo not shown) [PC-32]
7.00 to 8.00

What about this compound? Cc1cc(COc2ccc(Sc3c(C4NC(=O)NC4=O)ncn3C)cc2)ccn1 (stereo not shown) [OC-14]
7.00 to 8.00

What about this compound? O=C1NC(=O)C(c2cnccc2Sc2ccc(OCc3ccccc3CO)cc2)N1 (stereo not shown) [PC-9]
7.00 to 8.00

What about this compound? O=C1NC(=O)C(c2cnccc2Oc2ccc(OCc3cccc(C(=O)O)c3)cc2)N1 (stereo not shown) [PC-23]
< 6.00

What about this compound? Cc1cc(COc2ccc(Sc3ccncc3C3NC(=O)NC3=O)cn2)ccn1 (stereo not shown) [PC-61]
6.00 to 7.00

What about this compound? NC(=O)c1ccc(COc2ccc(Sc3ccncc3C3NC(=O)NC3=O)cc2)cc1 (stereo not shown) [PC-37]
6.00 to 7.00

What about this compound? Cc1cc(CN(C)c2ccc(Sc3ccncc3C3NC(=O)NC3=O)cc2)ccn1 (stereo not shown) [PC-58]
7.00 to 8.00

What about this compound? Cc1cc(OCc2ccc(Sc3ccncc3C3NC(=O)NC3=O)cc2)ccn1 (stereo not shown) [PC-44]
7.00 to 8.00

What about this compound? COc1cc(COc2ccc(Sc3ccncc3C3NC(=O)NC3=O)cc2)ccn1 (stereo not shown) [PC-30]
7.00 to 8.00

What about this compound? Cc1cc(CCc2ccc(Sc3ccncc3C3NC(=O)NC3=O)cc2)ccn1 (stereo not shown) [PC-57]
7.00 to 8.00

What about this compound? CNC(=O)c1cncc(COc2ccc(Sc3ccncc3C3NC(=O)NC3=O)cc2)c1 (stereo not shown) [PC-36]
6.00 to 7.00

What about this compound? Cc1cccc(COc2ccc(Sc3cnn(C)c3C3NC(=O)NC3=O)cc2)c1 (stereo not shown) [OC-5]
7.00 to 8.00

What about this compound? NC(=O)c1cncc(COc2ccc(Sc3ccncc3C3NC(=O)NC3=O)cc2)c1 (stereo not shown) [PC-34]
7.00 to 8.00

What about this compound? Cc1cc(CNc2ccc(Sc3ccncc3C3NC(=O)NC3=O)cc2)ccn1 (stereo not shown) [PC-56]
7.00 to 8.00
